Every entry's value here was drawn from patent US8735388B2.

Target: Muscarine M4 (GPCR-A-MA-ACH M4) (Homo sapiens)
Construct: expressed in transfected cells; host or cells: CHO cells
Sequence (P08173 whole entry): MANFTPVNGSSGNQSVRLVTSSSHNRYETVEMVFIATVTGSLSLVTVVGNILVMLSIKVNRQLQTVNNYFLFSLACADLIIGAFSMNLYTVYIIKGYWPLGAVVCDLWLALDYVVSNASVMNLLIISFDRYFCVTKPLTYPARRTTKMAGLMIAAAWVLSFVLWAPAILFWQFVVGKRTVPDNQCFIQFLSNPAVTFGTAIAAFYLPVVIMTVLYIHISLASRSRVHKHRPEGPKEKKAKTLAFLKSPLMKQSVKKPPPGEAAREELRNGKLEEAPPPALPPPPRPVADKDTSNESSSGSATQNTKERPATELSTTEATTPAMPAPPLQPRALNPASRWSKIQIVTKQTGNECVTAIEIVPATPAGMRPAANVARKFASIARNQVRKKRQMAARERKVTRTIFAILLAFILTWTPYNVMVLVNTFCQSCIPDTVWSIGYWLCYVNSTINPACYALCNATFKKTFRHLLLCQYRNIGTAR
Assay: Muscarine M4 cell-based functional assay (CHO cells, Ca2+ - Aequorin luminescence)
Details: human M4, CHO cells; agonist mode, reference agonist oxotremorine; read-out: Cell funct. Musc. M4 Agonism pEC50 (converted)
Note to self: use 1.0 only for EC50 readings below 0.6 µM; a reading exactly at 0.6 µM still gets 0.0.

>  <compound>
CSc1c[nH]nc1C1=CCCN(C)C1 [Compound 22A]

>  <class label>
0.0

$$$$
>  <compound>
CCCCSc1cc(C2=CCCN(C)C2)n[nH]1 [Compound 26]

>  <class label>
0.0

$$$$

Prompt line: Here's an entry: CN1CCC=C(c2n[nH]cc2SCC=Cc2ccccc2)C1 [Compound 22K] . Is its EC50 below 0.6 µM?
Response line: 0.0

Prompt line: Here's an entry: COCCOCCSc1c[nH]nc1C1=CCCN(C)C1 [Compound 22P] . Is its EC50 below 0.6 µM?
Response line: 0.0
